system: HEK293T; experiment: median enrichment of reporter reads in eGFP-reduced (low/intermediate) vs eGFP-high sorted cells (eGFP-extension fusion abundance) (ratio); higher = stronger loss of eGFP-fusion protein abundance (more destabilising extension);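 further: lentiviral eGFP-IRES-mCherry reporter pool sorted by FACS 96 h post-transduction, gated on mCherry-high cells, Illumina read counts normalized per million, median across four biological replicates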
Overview of reported median enrichment across a group of substances:
Form field (numeric): enter value without unit.

Substance: YILLKVF [LY75]
median enrichment: 4.38
//
Substance: SFQNWMDFYFFQ [CCDC169]
median enrichment: 19.6
//
Substance: WARGHARAVQSWPGPPVGLLCSLPSLPPDAGPCCSLRTIRSSCSCHPHLETCLCAHLKMGSVPVLKCPVAAPVVEDQGLRFGT [FRMD8]
median enrichment: 5.56
//
Substance: QGHACAPMGFLFSFFFFLVGGVGGLD [PRKACA]
median enrichment: 5.49
//
Substance: SWHSSPHTCSQAQMEVP [ACTL6B]
median enrichment: 0.404
//
Substance: SAHQRAPSPRIAAPTQPGAPDPPGGLRGNRRREGKGPPSPSRPQGAATDWRAAEGGRARAPRGRTIRAPAPRPVPPQARA [TLX3]
median enrichment: 3.75
//
Substance: CGSLRTTASLLLTSVATEAERQSDTSTGAPGEMGPA [PEX26]
median enrichment: 0.412
//
Substance: WGYWPTLWAPCSA [EFCC1]
median enrichment: 7.99
//
Substance: YAATDLGHLSQLAHPPPLPNFRYLSILLK [FBXL6]
median enrichment: 5.29
//
Substance: STSPAPLRTPPRLDGWAHASHWGPGSRRWAPTLGPRGAANHTGLRPSYPAPSPSTSTFTSPPFHFFLYVFFLLETDSIHIEYN [JUNB]
median enrichment: 4.9

If you can, please state the reported median enrichment value of YGFHKHP [SELP] .
1.36

YPPAQPRTDMNIGWTEVASV [PIP4K2A] ?
5.83

Same question, SEMMSCPGPMATRTLQATLLCDQARIPGAGLRGLNGPSGTQVGLSTLSPTTQPTALK [TMEM54] this time
0.763

// query: WGAAYQSLGSHLLRC [C11orf91]
5.76

Try the substance LAAWDRSTNYTGSGIRVSKMSYECRSEGHMLTLESVER [NLRP7]
13.6

Another substance to check: WLTAALAHSARGQDGGYLRPVLSCLFVFLIRDHVGLLRTRKAGKFPAGPSA [MKS1]
10.7

Repeat with LWAHHKDTSSLCRHHPAIESGGPCWSLWTYSSRPEKSLALELNSLDCTITTTYELRDYEGLFRGYESEPLFLEL [TMEM177]
9.96

Proceed to SNSLRLAAPLGFLPCRTCLEVLPGGGGRGRLDLLS [AQP6]
3.45

Please do the same for GYSHPGTEKAADGDCLPQPQQHLGLQLLESYHPRRQAQPGRGEEWAVKMKPHAQSPPIPHAAPPQSQATSCLLLVGGGLLSPS [LGALS9] as well.
3.94

Next record, please: YDSLVL [ALDH5A1]
0.258

Thanks! And LHTQSPGVGHTAVISQS [ALLC] ?
0.756

Thanks! And LIQHREVAACDLTHRFLCFLSHPGNLAFWFLPATLRLSSSAFQ [FHL2] ?
7.42

And then QKGSGPGIHVGGRGRGGRREGRGEIHTVDTLTSWPKSLPQDLPDLHGQASYGGVSISFFLFLFPGLRASWGPRFTNSPTPLKL [AQP1] , what is it?
6.27

Another: YSSSPVDEHLGWKFCSHTQDTAQDPAGVFFSVVRCTIGLMSIVLEDERKLRRTRSTDPDVIKHFVVSLSHR [BICD1]
3.59

Input LGSVPGWPVPITSYAHLPPPVFPPLDWWPLPWGRSPHVPAPGDRQRRQQAAFVAQQGALPSLLPSCFS [CST3]
4.44

Param item: CPAVGMAGLPGQTR [SLC25A10]
0.543

Please answer likewise for WRLRASRRDLMPRGGGCL [CTU1]
5.49

Same lookup for QQLRLHQRQHTKKL [BCAS3] , please.
1.16

Further, for SVSGNHEGIWQ [MOAP1] ?
0.522
